FYI, the data here is from PubChem BioAssay (NCI).

# Tested on: MDA-MB-435
# method summary: NCI tumour cell line growth inhibition, 48 h
observation type: TGI (nM)

1. COc1cc2c3c(n(CCCNC(C)C)c(=O)c2cc1OC)-c1nc2c(cc1C3=O)OCO2 = 10900
2. CSc1ccc(C(=O)Nc2ccc3nn(/C(C#N)=C/c4ccccn4)nc3c2)cc1 = 2560
3. CCNCCCn1c2c(c3cc(OC)c(OC)cc3c1=O)C(=O)c1cc3c(nc1-2)OCO3 = 2890

###

# Test system: MDA-MB-468 breast
# method summary: NCI tumour cell line growth inhibition, 48 h; in the data active = GI50 below about 0.43 µM; inactive = the rest
Labels: active, inactive

1) CCCCCCCCCCCCCCCCC(=O)O.CCCCCCCCCCCCCCCCCC(=O)O.CCCCCCCCCCCCCCCCCC(=O)O.CCCCCCCCCCCCCCCCCC(=O)O.CCCCCCCCCCCCCCCCCC(=O)O.CO[CH-]OC12COC1CC(O)C1(C)C(O)C(OC(C)O)C3=C(C)C(OC(=O)C(O)C([NH-])c4ccccc4)CC(O)(C(OC(=O)c4ccccc4)C21)C3(C)C.[Cu+].[Zn].[Zn].[Zn].[Zn].[Zn] (stereo not given) = active
2) N/C(=N\c1nc2ccc([N+](=O)[O-])cc2s1)NC(=O)Nc1ccccc1Cl = inactive
3) COC1=CC(c2ccc[nH]2)=N/C1=C\c1[nH]c(C)c(C(=O)CCCCC(=O)Oc2ccc3c(c2)CCC2C3CC[C@]3(C)[C@@H](O)CC[C@@H]23)c1C (stereo not given in full) = inactive
4) O=C(c1ccc(Cl)cc1)C1[C@H](c2ccc(Br)cc2)[C@@H](c2ccccc2)NC12C(=O)Nc1ccc(Br)cc12 (stereo not given in full) = inactive
5) Cc1ccc(Cl)c(Nc2ccccc2C(=O)O)c1Cl = inactive
